Please provide measured Enzyme Activity Endpoint Assay: Fc for the entries that follow.
Target: pooled human IgG (human IgG1, 2, 3 and 4)
Return type: number; implicit unit ng/µL.

IN: Name the recorded Enzyme Activity Endpoint Assay: Fc for PRT-542 (protein) MANQEIRYSKNENPNVTIKWVHGIGEPTQAEKEKIEFWWYETTTTKFFNNRKVDHLGDGNQCWAKTDSNMLHWWFVQNEENINQYIEKKNITGKINFNGEQMFDVKEGIDDNQEPEKSYIANTFRTKKAHNLSTKHKGDYIINGLSWYLYGLNNFKNAHGPTPVKKKPKFYGPALFKDVFNRGDGNTPIIVETDFKEYTKKEFEDTLSAALDSKKAVGINIYGSNVDYQHAITLWGAAFDEEENIIAIYVVDNNFKFENRIFPYGIWYQKEGRPYLFNYEINSFVKNRYVGEITTLDKGEAQWQETNLEHHHHHH .
OUT: 0

IN: Try the protein PRT-248 (protein) MVTSVWTKGVTPPTNFTYGEDVLHAPYVANQGWYDITKTFNGKDDLLCGAATAGNMLHWWFDQNKEQIENYLKKHPEKQKINFNGEQMFDVKEAIDTKDSQLDSKLFEYFKEKAFPNLSTKHLGVFPDHVIDMFINGYRLSLLNHGPTPVKRGSKDPRGGIFDAVFTRGDQSKLLTNRHDFKEKTLKEISDLIKQELTEGKALGISHTYANVRINHVINLWGADFDAEGNLEAIYVTDSDSNASIGMKKYFVGVNSSGKVAISAKEIEEDNIGAQVLGLFTLSTGQDIWNQTN
OUT: 370
